assay: Therapeutic index, CC50 for human Hep2 cells to EC50 for RSV RSS; format: cell-based, HEp-2; settings: read-out: Ratio CC50/EC50
Each item that follows carries a reported selectivity ratio.

MOLECULE | selectivity ratio
COc1ccccc1C(=O)NC1N=C(c2ccccc2)c2ccccc2NC1=O (stereo not given) | > 16
CC(=O)NC1N=C(c2ccccc2)c2ccccc2NC1=O (stereo not given) | > 5
COc1cc(S(C)(=O)=O)ccc1C(=O)N[C@H]1N=C(c2ccccc2)c2ccccc2NC1=O | > 100
COc1cc([N+](=O)[O-])ccc1C(=O)N[C@H]1N=C(c2ccccc2)c2ccccc2NC1=O | > 55
O=C(Nc1ccccc1F)N[C@H]1N=C(c2ccccc2)c2ccccc2NC1=O | > 58

====

system: Respiratory syncytial virus; test: Antiviral activity against RSV A isolates infected human Hep2 cells after 5 days by plaque reduction assay; assay type: functional, organism-based; conditions: HEp-2, 120 h

COMPOUND | EC50, nM
O=C(Nc1ccccc1F)N[C@H]1N=C(c2ccccc2)c2ccccc2NC1=O [RSV-604] | 800

====

tested on: Respiratory syncytial virus; experiment: Antiviral activity against RSV Long infected human Hep2 cells after 5 days by plaque reduction assay; assay type: functional, organism-based; conditions: HEp-2, 120 h
ASSAY READOUT: log10 EC50 (log10 of the value in nM)

COMPOUND | ASSAYED TARGET | NUMBER
NC(=O)c1ncn([C@@H]2O[C@H](CO)[C@@H](O)[C@H]2O)n1 | Respiratory syncytial virus | 4.23
COc1cc(S(C)(=O)=O)ccc1C(=O)N[C@H]1N=C(c2ccccc2)c2ccccc2NC1=O | Respiratory syncytial virus | 2.59
COc1cc([N+](=O)[O-])ccc1C(=O)N[C@H]1N=C(c2ccccc2)c2ccccc2NC1=O | Respiratory syncytial virus | 2.76
CC(=O)NC1N=C(c2ccccc2)c2ccccc2NC1=O (stereo unspecified) | Respiratory syncytial virus | 3.86
O=C(Nc1ccccc1F)N[C@H]1N=C(c2ccccc2)c2ccccc2NC1=O | Respiratory syncytial virus | 2.90
COc1ccccc1C(=O)NC1N=C(c2ccccc2)c2ccccc2NC1=O (stereo unspecified) | Respiratory syncytial virus | 3.08

====

tested on: Respiratory syncytial virus; experiment: Antiviral activity against RSV RSS with N protein L139I mutation in human Hep2 cells after 5 days by plaque reduction assay; type: functional, organism-based; conditions: HEp-2, 120 h
pEC50: −log10 of the molar value.

CHEMICAL STRUCTURE | pEC50
O=C(Nc1ccccc1F)N[C@H]1N=C(c2ccccc2)c2ccccc2NC1=O | 5.17

====

The compounds listed here are annotated with their EC50.
system: Respiratory syncytial virus; test: Antiviral activity against RSV A2 infected human Hep2 cells after 5 days by plaque reduction assay; format: functional, organism-based; details: A2, HEp-2, 120 h
ASSAY READOUT: EC50 (µM)

COMPOUND | ASSAY READOUT | NUMBER
NC(=O)c1ncn([C@@H]2O[C@H](CO)[C@@H](O)[C@H]2O)n1 [RIBAVIRIN] | EC50 | 19
CC(=O)NC1N=C(c2ccccc2)c2ccccc2NC1=O (centres undefined) | EC50 | 15.1
O=C(Nc1ccccc1F)N[C@H]1N=C(c2ccccc2)c2ccccc2NC1=O [RSV-604] | EC50 | 0.5
COc1ccccc1C(=O)NC1N=C(c2ccccc2)c2ccccc2NC1=O (centres undefined) | EC50 | 1.2

Provenance of the data: ChEMBL document CHEMBL1143412
